Origin of values: patent US10059709B2

Target: GST-JAK1(866-1154) (Homo sapiens (Human))
Sequence (P23458 866-1154): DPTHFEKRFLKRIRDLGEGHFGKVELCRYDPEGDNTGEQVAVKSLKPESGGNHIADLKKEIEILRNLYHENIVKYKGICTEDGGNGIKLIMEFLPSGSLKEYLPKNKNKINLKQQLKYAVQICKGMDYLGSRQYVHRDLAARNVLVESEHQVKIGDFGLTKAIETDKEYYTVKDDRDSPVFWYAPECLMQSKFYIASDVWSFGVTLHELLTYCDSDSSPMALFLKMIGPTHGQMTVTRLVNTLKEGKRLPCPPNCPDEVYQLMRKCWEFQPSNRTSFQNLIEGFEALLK
pIC50: −log10 of the molar value.
readout.label: pIC50

INSERT INTO assay_data (chemical_smiles, assay_target, readout_label, censoring_qualifier, numeric_result) VALUES
  ('CNS(=O)(=O)C[C@H]1CC[C@H](N(C)c2nc(N)ncc2-c2ccccc2)CC1', 'GST-JAK1(866-1154) (Homo sapiens (Human))', 'pIC50', '<', 5.00),
  ('CNS(=O)(=O)C[C@H]1CC[C@H](N(C)c2c(C#N)cnc3sccc23)CC1', 'GST-JAK1(866-1154) (Homo sapiens (Human))', 'pIC50', '<', 5.00),
  ('CNS(=O)(=O)C[C@H]1CC[C@H](Nc2c(C#N)cnc3sccc23)CC1', 'GST-JAK1(866-1154) (Homo sapiens (Human))', 'pIC50', '<', 5.00),
  ('CNS(=O)(=O)C[C@H]1CC[C@H](N(C)c2nc(N)ncc2Br)CC1', 'GST-JAK1(866-1154) (Homo sapiens (Human))', 'pIC50', '<', 5.00),
  ('CNS(=O)(=O)C[C@H]1CC[C@H](Oc2c([N+](=O)[O-])cnc3[nH]ccc23)CC1', 'GST-JAK1(866-1154) (Homo sapiens (Human))', 'pIC50', '=', 7.15),
  ('CNS(=O)(=O)C[C@H]1CC[C@H](N(C)c2ncnn3cccc23)CC1', 'GST-JAK1(866-1154) (Homo sapiens (Human))', 'pIC50', '=', 6.26),
  ('CNS(=O)(=O)C[C@H]1CC[C@H](Nc2c(C#N)cnn3cccc23)CC1', 'GST-JAK1(866-1154) (Homo sapiens (Human))', 'pIC50', '=', 5.74);
